Some compounds, each annotated with its measured IC50.
assay_system: Dipeptidyl peptidase 4 (Mus musculus)
Sequence (P28843 whole entry): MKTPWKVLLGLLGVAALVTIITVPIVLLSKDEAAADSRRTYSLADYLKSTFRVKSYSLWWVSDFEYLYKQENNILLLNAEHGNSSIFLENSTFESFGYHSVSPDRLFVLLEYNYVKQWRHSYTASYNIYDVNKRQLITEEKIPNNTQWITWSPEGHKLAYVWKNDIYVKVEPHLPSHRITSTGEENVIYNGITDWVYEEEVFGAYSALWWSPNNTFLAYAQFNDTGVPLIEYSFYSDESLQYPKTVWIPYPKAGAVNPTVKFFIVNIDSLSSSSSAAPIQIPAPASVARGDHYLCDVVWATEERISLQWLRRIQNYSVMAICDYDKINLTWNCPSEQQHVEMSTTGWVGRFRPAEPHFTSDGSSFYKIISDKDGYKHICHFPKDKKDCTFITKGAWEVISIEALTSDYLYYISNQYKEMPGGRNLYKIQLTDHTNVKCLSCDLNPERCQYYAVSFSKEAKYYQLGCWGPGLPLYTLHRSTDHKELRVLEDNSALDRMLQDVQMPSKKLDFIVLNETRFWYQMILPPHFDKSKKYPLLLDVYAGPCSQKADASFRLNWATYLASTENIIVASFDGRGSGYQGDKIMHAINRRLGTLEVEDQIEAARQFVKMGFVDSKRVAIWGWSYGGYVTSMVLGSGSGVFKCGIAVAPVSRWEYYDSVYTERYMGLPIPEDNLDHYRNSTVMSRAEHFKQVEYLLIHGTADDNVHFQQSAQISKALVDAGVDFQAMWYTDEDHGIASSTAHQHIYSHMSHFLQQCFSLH
assay_explanation: Inhibition of DPP4 in C57BL/6 mouse serum pre-incubated for 5 mins followed by Gly-Pro-7-AMC substrate addition by fluorescence based assay

{"columns": ["structure_as_smiles", "recorded_measurement"],
 "data": [
  ["N[C@@H](CC(=O)NC1(c2nc3ccc(OCC(=O)NC[C@H](O)[C@@H](O)[C@@H](O)[C@H](O)CO)cc3s2)CCS(=O)(=O)CC1)Cc1cc(F)c(F)cc1F.O=C(O)C(F)(F)F", "2.2 nM"],
  ["N[C@@H](CC(=O)NC1(c2nc3ccc(OCCCCCCCCCCCC(=O)NCCS(=O)(=O)O)cc3s2)CCS(=O)(=O)CC1)Cc1cc(F)c(F)cc1F", "81.8 nM"]
]}

Below: the item to evaluate.
Under Dipeptidyl peptidase 4 (Mus musculus): report IC50 of C[N+](C)(C)CCNC(=O)COc1ccc2nc(C3(NC(=O)C[C@H](N)Cc4cc(F)c(F)cc4F)CCS(=O)(=O)CC3)sc2c1.O=C(O)C(F)(F)F.O=C([O-])C(F)(F)F .
1.4 nM
